# Test system: CCRF-CEM
# experiment.description: Cell cycle arrest in human CEM cells assessed as accumulation at G0/G1 phase using propidium iodide staining at IC50 concentration after 24 hrs by flow cytometry
# Type: functional
experimental.endpoint: Activity (%)
# number only, unit % dropped from output

{"columns": ["molecule", "Activity, %"],
 "data": [
  ["CCCCCCCCCOC(c1ccc([N+](=O)[O-])cc1)c1cn([C@@H]2O[C@H](CO)[C@@H](O)[C@H]2O)c(=O)[nH]c1=O (stereo in doubt; (+)-7i)", 40.95]
]}

Incoming: Which Activity is listed for Nc1nc2[nH]cnc2c(=S)[nH]1 ?
Outgoing: 43.42

Incoming: Which Activity is listed for Nc1nc(F)nc2c1ncn2[C@@H]1O[C@H](CO)[C@@H](O)[C@@H]1O ?
Outgoing: 39.66

Incoming: Which Activity is listed for CCCCCCCCCOC(c1ccc([N+](=O)[O-])cc1)c1cn([C@@H]2O[C@H](CO)[C@@H](O)[C@H]2O)c(=O)[nH]c1=O (single isomer, unassigned; (-)) ?
Outgoing: 43.38

Incoming: Which Activity is listed for CCCCCCCCOC(c1ccc([N+](=O)[O-])cc1)c1cn([C@@H]2O[C@H](CO)[C@@H](O)[C@H]2O)c(=O)[nH]c1=O (stereo in doubt; (-)-8h) ?
Outgoing: 40.02

Incoming: Which Activity is listed for CCCCCCCCOC(c1ccc([N+](=O)[O-])cc1)c1cn([C@@H]2O[C@H](CO)[C@@H](O)[C@H]2O)c(=O)[nH]c1=O (single isomer, unassigned; (+)) ?
Outgoing: 42.36
